Assay: Toxicity in ip dosed mouse
Format: organism-based
Settings: in vivo
test readout: LD50

Exam item: # LD50 lookup, item `C[C@H]1CCC/C=C/[C@@H]2C[C@H](O)C[C@H]2[C@H](O)/C=C/C(=O)O1`
Marked response: > 200 mg/kg

* * *

Test: Cytotoxicity against human HeLa R19 cells assessed as reduction of cell viability at 0.5 to 50 uM by MTS assay
Assay type: cell-based
Details: hela r19, 50 µM

{"columns": ["mol smiles", "Activity"],
 "data": [
  ["O=C1/C=C/[C@@H](O)[C@@H]2C[C@@H](O)C[C@H]2/C=C/CCC[C@H](CCc2ccc(C(F)(F)F)cc2)O1", "Non-toxic"],
  ["O=C1/C=C/[C@@H](O)[C@@H]2C[C@@H](O)C[C@H]2/C=C/CCC[C@H](CCc2ccccc2)O1", "Non-toxic"],
  ["C=C[C@H]1CCC/C=C/[C@@H]2C[C@H](O)C[C@H]2[C@H](O)/C=C/C(=O)O1", "Non-toxic"]
]}
